Molecular target: Cannabinoid receptor 1 (Rattus norvegicus)
Test: Displacement of [3H]CP-55940 from cannabinoid CB1 receptor in rat brain cortical membrane at 10 uM
Format: cell membranes
In this scheme, each record receives a class according to its Activity; the ranges are band A (below 10%), band B (10% to below 30%), band C (30% or more)

In [3]: df
Out[3]:
                         smiles_string     cat
0              COc1ccc2oc(=O)c(C)cc2c1  band B
1                 Cc1cc2cc(I)ccc2oc1=O  band B
2          COc1cc(Br)cc2cc(C)c(=O)oc12  band B
3  COc1ccccc1Cc1cc2c(ccc3ccccc32)oc1=O  band C
4      COc1ccc2cc(Cc3ccccc3)c(=O)oc2c1  band C
5         O=c1oc2ccc(I)cc2cc1Cc1ccccc1  band C
6            Cc1cc2cc(Cl)cc(Br)c2oc1=O  band A
7          Cc1cc2c(C(C)C)ccc(C)c2oc1=O  band B
8      COc1cccc2cc(Cc3ccccc3)c(=O)oc12  band A

This collection of values is drawn from ChEMBL document CHEMBL1153953.
